Cited source: patent US20050026839A1

Let's look at some binders and their measured cAMP EMax(obs.).
# subjectOfTest: T1, wild-type human PTH/PTHrP receptor (hP1R-WT) (human, UniProt Q03431 27-593)
# T1 sequence (looked up): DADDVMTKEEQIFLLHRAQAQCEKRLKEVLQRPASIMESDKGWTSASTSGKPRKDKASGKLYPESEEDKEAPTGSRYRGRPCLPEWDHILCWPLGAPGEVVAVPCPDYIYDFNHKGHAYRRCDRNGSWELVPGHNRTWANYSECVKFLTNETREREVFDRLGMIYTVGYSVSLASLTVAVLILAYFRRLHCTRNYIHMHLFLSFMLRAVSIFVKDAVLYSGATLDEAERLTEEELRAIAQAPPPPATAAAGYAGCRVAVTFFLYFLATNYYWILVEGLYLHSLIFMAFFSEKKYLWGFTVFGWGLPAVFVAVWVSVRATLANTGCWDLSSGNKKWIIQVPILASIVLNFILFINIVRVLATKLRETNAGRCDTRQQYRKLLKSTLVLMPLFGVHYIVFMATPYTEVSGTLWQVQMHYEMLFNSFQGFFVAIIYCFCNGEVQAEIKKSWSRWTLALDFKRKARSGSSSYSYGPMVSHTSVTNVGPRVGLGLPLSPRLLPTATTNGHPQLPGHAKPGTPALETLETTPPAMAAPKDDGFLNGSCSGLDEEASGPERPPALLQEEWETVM
# methodSummary: cell-based or functional assay
Square brackets hold non-standard residues; d marks the D form. Ends that are not written are not given here. hArg = N=C(N)NCCCC[C@H](N)C(=O)O; Aib = CC(C)(N)C(=O)O
Report as a plain number; the unit pmole/well is understood.

[Aib]V[Aib]EIQLMHQ-NH2 (N-terminus assumed; SMILES CC[C@H](C)[C@H](NC(=O)[C@H](CCC(=O)O)NC(=O)C(C)(C)NC(=O)[C@@H](NC(=O)C(C)(C)N)C(C)C)C(=O)N[C@@H](CCC(N)=O)C(=O)N[C@@H](CC(C)C)C(=O)N[C@@H](CCSC)C(=O)N[C@@H](Cc1c[nH]cn1)C(=O)N[C@@H](CCC(N)=O)C(N)=O, also called 684 [Aib^1,3, M]PTH (1-10); [Aib^1,3,M]PTH(1-10)) [[Aib^1,3,Gln^10]PTH(1-10)]
111

Could you now look at the following binder, please?
For AVAEIQLMHQ[hArg][Aib]KW-NH2 (N-terminus assumed; SMILES CC[C@H](C)[C@H](NC(=O)[C@H](CCC(=O)O)NC(=O)[C@H](C)NC(=O)[C@@H](NC(=O)[C@H](C)N)C(C)C)C(=O)N[C@@H](CCC(N)=O)C(=O)N[C@@H](CC(C)C)C(=O)N[C@@H](CCSC)C(=O)N[C@@H](Cc1c[nH]cn1)C(=O)N[C@@H](CCC(N)=O)C(=O)N[C@@H](CCCCNC(=N)N)C(=O)NC(C)(C)C(=O)N[C@@H](CCCCN)C(=O)N[C@@H](Cc1c[nH]c2ccccc12)C(N)=O, Aib scan of [M]PTH(1-14); Aib replaces the Ala^12 of [M]; also called 633 Aib-12) [[Aib^12,M]PTH(1-14)] , what is its reported cAMP EMax(obs.)?
263
